Origin of measurements: patent US20170355757A1

Target Or System: T1, human C5 R885C-mmh (human, UniProt P01031 19-1676)
T1 construct: also called human C5 variant R885C
Assay Overview: SPR, mAb captured via anti-hFc, 25C
Entries and their measured kon follow.
Measured Parameter: kon (M⁻¹ s⁻¹)

Binder	Measured Parameter	Recorded Result
H4H12169P (antibody, human IgG4, V domains shown, Human IgG4 Fc with S108P hinge mutation (H4H)) VH: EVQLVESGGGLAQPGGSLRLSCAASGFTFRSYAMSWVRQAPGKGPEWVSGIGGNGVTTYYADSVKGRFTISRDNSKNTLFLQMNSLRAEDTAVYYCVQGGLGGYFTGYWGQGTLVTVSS VL: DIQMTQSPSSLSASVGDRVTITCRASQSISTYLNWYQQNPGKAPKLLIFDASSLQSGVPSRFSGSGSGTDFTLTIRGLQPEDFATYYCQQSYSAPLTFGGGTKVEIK	kon	278000
H4H12161P (antibody, human IgG4, V domains shown, Human IgG4 Fc with S108P hinge mutation (H4H)) VH: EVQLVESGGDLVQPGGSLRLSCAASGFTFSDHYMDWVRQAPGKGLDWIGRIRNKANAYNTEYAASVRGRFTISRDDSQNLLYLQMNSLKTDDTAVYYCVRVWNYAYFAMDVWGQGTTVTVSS VL: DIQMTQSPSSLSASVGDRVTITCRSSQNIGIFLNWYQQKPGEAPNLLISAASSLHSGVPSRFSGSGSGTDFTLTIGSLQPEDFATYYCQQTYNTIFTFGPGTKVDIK	kon	130000
